Tested on: WI-38
Experiment: Cytotoxicity against human W138 cells after 48 hrs by MTT assay
Type: cell-based
Details: WI-38, 48 h
readout-type: IC50 (µM)
Numbers only, in µM.

Answered examples (4):
- molecule: "CCOC(=O)C1=C(N/C=N/c2ncc(-c3ccccc3)s2)Nc2[nH]nc(C)c2C1c1ccc(N(C)C)cc1 (stereo not given)"
  IC50, µM: 33.5
- molecule: "CCOC(=O)C1=C(N)Nc2[nH]nc(C)c2C1c1ccc(N(C)C)cc1 (stereo not given)"
  IC50, µM: 84
- molecule: "CCOC(=O)C1=C(N/C=N/c2cccnc2Cl)Nc2[nH]nc(C)c2C1c1ccc(N(C)C)cc1 (stereo not given)"
  IC50, µM: 74.5
- molecule: "CCOC(=O)C1=C(NN=C(C#N)C#N)Nc2[nH]nc(C)c2C1c1ccc(N(C)C)cc1 (stereo not given)"
  IC50, µM: 42.7

Here is another molecule to look at.
# input molecule: CCOC(=O)C1=C(NN=C(C(C)=O)C(C)=O)Nc2[nH]nc(C)c2C1c1ccc(N(C)C)cc1 (stereo not given) ; wanted: its IC50
61.4

Where these numbers come from: ChEMBL document CHEMBL4270617
